Collected literature values of IC50 measured for UniProt:P00533.

Your task in this section: give IC50 for each listed record.
1. C=CC(=O)Nc1cc(-c2c(-c3ccc(CCO)cc3)[nH]c3ncc(C(=O)OC(C)C)cc23)ccc1C
2. Cc1cc(Nc2ncnc3sc4c(c23)CCN(C(=O)/C=C/CN2CCOCC2)C4)ccc1Oc1ccc2ncnn2c1
3. CC(C)c1nc(-c2cccc(NS(=O)(=O)c3c(F)cccc3F)n2)c(-c2ccnc(Nc3ccc(N4CCOCC4)nc3)n2)s1
4. C=CC(=O)Nc1cc(-c2c(-c3ccc(OCCN4CCCC4)cc3)[nH]c3nccc(Cl)c23)ccc1C
5. COc1ccc(NC(=O)/C=C/CN(C)C)cc1Nc1ncc(OC)c(Nc2ccc3ccccc3c2)n1
6. Cc1ccc(-c2c(-c3ccc(N4CCN(C)CC4)cc3)[nH]c3ncc(C(=O)OC(C)C)cc23)cc1NC(=O)/C=C/CN(C)C
7. Fc1ccc(Nc2ncnc3nc(Nc4ccc(Cn5ccnc5)cc4)sc23)cc1Cl

Reply text:
≤ 100 nM
> 10000 nM
> 1000 nM
≤ 100 nM
225 nM
≤ 100 nM
6.3 nM

###

pIC50: −log10 of the molar value.
Collected literature values of pIC50 measured for Epidermal growth factor receptor (Homo sapiens).

>>> reported_value("CN1CCN(Cc2ccc3[nH]/c(=N\\C(=O)c4cc(Oc5cccc(O)c5C=O)c5sccc5c4)n(CC(C)(C)O)c3c2)CC1")
8.06
>>> reported_value("CCN1CCC(Nc2ccc3c(c2)/C(=C(\\c2ccc(OC)cc2)c2ncc[nH]2)C(=O)N3)CC1")
"5.30 to 6.30"
>>> reported_value("COCCN1CCC(Nc2ccc3c(c2)/C(=C(\\c2cccc(F)c2)c2ncn[nH]2)C(=O)N3)CC1")
"< 5.30"

In the following, a different compound is considered.
Entry under test: CC(C)Oc1cc2ncnc(Nc3ccc(F)c([N+](=O)[O-])c3)c2c2c1OCCO2 . Its pIC50 was > 7.00

###

Collected literature values of IC50 measured for Epidermal growth factor receptor (Homo sapiens, UniProt P00533).

>>> reported_value("COc1cccc(NC(=O)Nc2ccc(-c3cc(-c4nc5cc(N6CCN(C)CC6)ccc5[nH]4)n[nH]3)cc2)c1")
"> 5000 nM"
>>> reported_value("C[C@@H](Nc1ncnc2[nH]c(-c3ccc(NCc4ccc(/C=C/C(=O)NO)cc4)cc3)cc12)c1ccccc1")
"< 100 nM"
>>> reported_value("C=CC(=O)Nc1cc(-c2c(-c3ccc(N4CCN(C)CC4)cc3)[nH]c3ncc(C(=O)NC(C)C)cc23)ccc1C")
"≤ 100 nM"
>>> reported_value("COc1cc(/C=C2\\CCC/C(=C\\c3cc(OC)cc(OC)c3)C2=O)cc(OC)c1")
"2080 nM"
>>> reported_value("COc1ccc(NC(=O)/C=C/CN(C)C)cc1Nc1ncc(Cl)c(N(C)c2ccc3ccccc3c2)n1")
"93.9 nM"

Your task in this section: give IC50 for each listed record.
1. COc1ccccc1C(=O)NCc1ccc(-c2nn(C3CCCC3)c3ncnc(N)c23)cc1F
2. CCc1cc(Nc2ncc(Br)c(Nc3ccc(-c4cnn(C)n4)c(F)c3P(C)(C)=O)n2)c(OC)cc1N1CCC(N2CCN(C)CC2)CC1
3. COCCN(C)C/C=C/C(=O)Nc1cccc(-n2c(=O)n(-c3ccc(Oc4ccccc4)cc3)c3c(N)ncnc32)c1
4. Nc1cccc(Nc2ncnc3sc4c(c23)CCCC4)c1

Reply text:
1. 100 to 1000 nM
2. 5.2 nM
3. < 100 nM
4. 16.8 nM

Your task in this section: give IC50 for each listed record.
1. C=C1c2c(-c3cnc4ccccc4c3)c3c(N)ncnc3n2C[C@H]1NC(=O)/C=C/CN(C)CC
2. Cc1cccc(Nc2nc(Nc3cccc(NC(=O)/C=C/CN(C)C)c3)ncc2C)c1

Reply text:
1. 12 nM
2. < 10 nM

Your task in this section: give IC50 for each listed record.
1. O=S(=O)(NCCCN1CCOCC1)c1ccc(Nc2nc3ncnc(Nc4ccc(F)c(Cl)c4)c3s2)cc1
2. COc1cc(/C=C/c2cc(/C=C/c3ccc(F)cc3)n[nH]2)ccc1O
3. CN1CCN(c2ccc3[nH]c(-c4cc(-c5ccc(NC(=O)Nc6ccc(Cl)cc6)cc5)[nH]n4)nc3c2)CC1
4. C=CC(=O)Nc1cc(Nc2ncc3cccc(-c4cccc(F)c4)c3n2)ccc1N(C)CCN(C)C

Reply text:
10 nM
> 5000 nM
> 5000 nM
< 100 nM

###

pIC50: −log10 of the molar value.
Collected literature values of pIC50 measured for Epidermal growth factor receptor (Homo sapiens, UniProt P00533).

The cases that follow already have their pIC50 on record.
>>> reported_value("CN(C)C/C=C/C(=O)N1CCOc2c1ccc1ncnc(Nc3ccc(OCc4cccc(F)c4)cc3)c21")
"≥ 7.30"
>>> reported_value("CN(C)C/C=C/C(=O)N1CCOc2c1ccc1ncnc(Nc3ccc(Oc4ccc(Cl)cc4)cc3)c21")
"≥ 7.30"
>>> reported_value("C#Cc1cccc(Nc2ncnc3cc(O)c(OCCCCCCC(=O)NO)cc23)c1")
"> 7.00"
>>> reported_value("CC(C)c1nc(-c2cccc(NS(=O)(=O)c3c(F)cccc3F)c2)c(-c2ccnc(Nc3ccc(N4CCN(CCO)CC4)nc3)n2)s1")
"> 7.00"
>>> reported_value("CCc1cc(Nc2ncc(Br)c(Nc3ccc(-c4ncsc4C)cc3P(C)(C)=O)n2)c(OC)cc1N1CCC(N2CCN(C)CC2)CC1")
7.33
>>> reported_value("CCOc1nn(C)c2c1/C=C/c1n[nH]c3cc(F)c(cc13)-c1cnn(C)c1O[C@@H](C)CN(CC)C2")
8.48

In the following, a different molecule is considered.
Entry under test: C=CC(=O)N1CCc2[nH]c3ncnc(Nc4ccc(Oc5ccc6ncnn6c5)c(C)c4)c3c2C1 . Its pIC50 was < 5.00

###

Collected literature values of IC50 measured for Epidermal growth factor receptor (Homo sapiens, UniProt P00533).

>>> reported_value("CC#CC(=O)N1CCCC[C@H]1c1nc(-c2ccc(C(=O)Nc3cc(I)ccn3)cc2)c(C(N)=O)n1N")
"4680 nM"

Your task in this section: give IC50 for each listed record.
1. CN(C)C/C=C/C(=O)N1CC[C@@H](Oc2n[nH]c3nccc(Nc4cccc(Oc5ccccc5)c4)c23)C1
2. CCOC(=O)N1CCN(Cc2ccc(Nc3nc4ncnc(Nc5ccc(F)c(Cl)c5)c4s3)cc2)CC1
3. C=CC(=O)Nc1cc(-c2c(-c3ccc(N4CCN(C)CC4)cc3)[nH]c3ncc(C(=O)NCC4CCN(C)CC4)cc23)ccc1C

Reply text:
1. < 100 nM
2. 57 nM
3. 100 to 500 nM

###

pIC50: −log10 of the molar value.
Collected literature values of pIC50 measured for Epidermal growth factor receptor (Homo sapiens, UniProt P00533).

>>> reported_value("N#C/C(=C\\C1CC1)C(=O)N1CCC[C@@H](n2c(=O)n(-c3ccc(Oc4ccccc4)cc3)c3c(N)ncnc32)C1")
"6.00 to 7.00"

Your task in this section: give pIC50 for each listed record.
1. CC(=O)N1CCN(C/C=C/C(=O)N2CCc3c(sc4ncnc(Nc5ccc(Oc6ccc(C)nc6)c(C)c5)c34)C2)CC1
2. CC(C)(O)Cn1/c(=N/C(=O)c2ccnc(C#Cc3cccc(O)c3C=O)c2)[nH]c2ccccc21
3. CCc1cc(Nc2ncc(Br)c(Nc3ccc(-n4cc(OC)cn4)cc3P(C)(C)=O)n2)c(OC)cc1N1CCC(N2CCN(C)CC2)CC1
4. NS(=O)(=O)c1ccc(Nc2nc3ncnc(Nc4ccc(N5CCOCC5)cc4)c3s2)cc1
5. C=CC(=O)Nc1cc(Nc2nccc(-c3cn(C45CC(C4)C5)c4ccccc34)n2)c(OC)cc1N(C)CCN(C)C
6. CN(C/C=C/C(=O)N1CCOc2c1ccc1ncnc(Nc3ccc(Oc4ccn5ncnc5c4)c(Cl)c3)c21)C1CCC1
7. CCNc1nc(-c2cc(C)cc(OC)c2)c(-c2ccnc(Nc3ccc(N4CCOCC4)nc3)n2)s1
8. CCC(=O)N1CCC[C@@H](Nc2n[nH]c3nccc(Oc4ccc(-c5nc6ccccc6[nH]5)cc4)c23)C1

Reply text:
1: < 5.00; 2: 7.42; 3: 7.49; 4: 4.75; 5: ≥ 8.00; 6: 6.30 to 7.30; 7: < 6.00; 8: < 5.00

###

pIC50: −log10 of the molar value.
Collected literature values of pIC50 measured for Epidermal growth factor receptor (Homo sapiens, UniProt P00533).

The cases that follow already have their pIC50 on record.
>>> reported_value("CC(C)c1nc(-c2cccc(NS(=O)(=O)c3c(F)cccc3F)c2)c(-c2ccnc(Nc3cc(F)c(N4CCN(CCS(C)(=O)=O)CC4)cc3F)n2)s1")
"< 6.00"
>>> reported_value("COc1cc(Nc2ncc(Br)c(Nc3ccc(-c4cnn(C)n4)c(F)c3P(C)(C)=O)n2)c(C)cc1N1CCOCC1")
7.41
>>> reported_value("COc1ccnc(NC(=O)c2ccc(Oc3ccnc4[nH]nc(N[C@@H]5CCN(C(=O)/C=C/CN(C)C6CC6)C5)c34)cc2)c1")
"< 5.00"
>>> reported_value("C=CC(=O)N1CCc2ccc(-c3c(-c4ccc(OCCCN(C)C)cc4)[nH]c4nccc(Cl)c34)cc21")
"≥ 7.00"
>>> reported_value("C=CC(=O)Nc1cc(-c2c(-c3ccc(OCCN(C)C)cc3)[nH]c3nccc(Cl)c23)ccc1C")
"≥ 7.00"

Entry under test: Cc1ccc(Oc2ccc(Nc3ncnc4sc5c(c34)CCN(C(=O)/C=C/CN[C@H]3CC[C@H](OCC(F)(F)F)CC3)C5)cc2C)cn1 . Its pIC50 was 5.00 to 6.00
